Overview of recorded IC50 for various molecules
# TESTED_ON: VIM-1 (Pseudomonas aeruginosa, UniProt A0A0F7KYQ8)
# EXPERIMENTAL_DETAILS: Enzyme activity: determination of IC50, fluorescence assay with CCF2-FA substrate
# Format: biochemical
# CONDITION_NOTES: VIM-1 enzyme 30 pM, CCF2-FA 1.25 μM, 2 hours at 25° C.; read-out: VIM1 IC50
Numbers only here, please. The scale is nM.

Example results:
Given the entry CC(C)C[C@H](C(=O)O)[C@H](Cc1ccc(N2CC(CCO)C2)nc1)c1nnn[nH]1 , report its measured IC50.
8.2

Given the entry CCC[C@H](C(=O)O)[C@H](Cc1ccc(CCC(O)CO)cc1)c1nn[nH]n1 (some centres unmarked) , report its measured IC50.
12

Given the entry CCC[C@H](C(=O)O)[C@H](Cc1ccc(C2CCN(C=N)C2)nc1)c1nnn[nH]1 (some centres unmarked) , report its measured IC50.
6.23

Given the entry CCC[C@H](C(=O)O)[C@H](C[C@@H](C)c1ccccc1)c1nnn[nH]1 , report its measured IC50.
24

***
Given the entry CC(C)C[C@H](C(=O)O)[C@H](Cc1ccc(Oc2ccccc2C2CCCN2)nc1)c1nn[nH]n1 (some centres unmarked) [Example 376] , report its measured IC50.
4.6

Given the entry CCC[C@H](C(=O)O)[C@H](Cc1cccc(-c2ccc(N)nc2)c1)c1nn[nH]n1 , report its measured IC50.
1.1

Given the entry CNC(=O)C1CCCN(c2ccc(C[C@H](c3nnn[nH]3)[C@H](CC(C)C)C(=O)O)cn2)C1 (some centres unmarked) , report its measured IC50.
26

Given the entry CCC[C@H](C(=O)O)[C@H](Cc1ccc(CCN2CCCC2=O)cc1)c1nn[nH]n1 , report its measured IC50.
9.1

* * *

Overview of recorded IC50 for various compounds
# TESTED_ON: NDM-1 (Klebsiella pneumoniae, UniProt C7C422)
# Sequence (C7C422 29-270, looked up, species assumed): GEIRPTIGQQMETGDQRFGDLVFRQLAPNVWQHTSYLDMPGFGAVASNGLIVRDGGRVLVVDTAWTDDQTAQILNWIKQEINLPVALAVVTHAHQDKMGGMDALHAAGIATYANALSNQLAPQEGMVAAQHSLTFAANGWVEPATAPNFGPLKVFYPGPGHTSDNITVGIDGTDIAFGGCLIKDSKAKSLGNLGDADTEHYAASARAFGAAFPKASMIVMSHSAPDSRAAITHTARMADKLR
# EXPERIMENTAL_DETAILS: Enzyme activity: determination of IC50, fluorescence assay with CCF2-FA substrate
# Assay type: biochemical
# CONDITION_NOTES: NDM-1 enzyme 1 pM, CCF2-FA 1.25 μM, 2 hours at 25° C.; read-out: NDM1 IC50
Numbers only here, please. The scale is nM.

Given the entry CC(C)C[C@H](C(=O)O)[C@H](Cc1ccc(Oc2cccc(C3CCCNC3)c2)nc1)c1nn[nH]n1 (stereo partly drawn) [Example 382] , report its measured IC50.
140

Given the entry CCC[C@H](C(=O)O)[C@H](Cc1ccccc1-c1ccncc1)c1nn[nH]n1 [Example 397] , report its measured IC50.
13

Given the entry CCC[C@H](C(=O)O)[C@H](Cc1ccc(C(=O)NCC2CC2)cc1)c1nnn[nH]1 [Example 282] , report its measured IC50.
98

Given the entry CC(C)C[C@H](C(=O)O)[C@H](Cc1ccc(N2CCC(N)C2)nc1)c1nnn[nH]1 (stereo partly drawn) [Example 310] , report its measured IC50.
430

Given the entry CCC[C@H](C(=O)O)[C@H](Cc1ccccc1-c1cccc(C(N)=O)c1)c1nn[nH]n1 [Example 399] , report its measured IC50.
1.4

Given the entry CCC[C@H](C(=O)O)[C@H](Cc1ccc(C[C@@H]2CCCOC2)cc1)c1nn[nH]n1 [Example 257] , report its measured IC50.
13

Given the entry CC(C)C[C@H](C(=O)O)[C@H](Cc1ccc(N2CC3(CN(C)C(=O)O3)C2)nc1)c1nnn[nH]1 [Example 337] , report its measured IC50.
62

Given the entry CCC[C@H](C(=O)O)[C@H](Cc1ccc(C(=O)N2CCNCC2)cc1)c1nnn[nH]1 [Example 275] , report its measured IC50.
39

Given the entry O=C(O)[C@@H](CC(F)(F)F)[C@H](Cc1ccc(NCCO)nc1)c1nnn[nH]1 [Example 436] , report its measured IC50.
1050

Given the entry CCC[C@@H](C(=O)O)[C@H](Cc1ccc(-c2ccc3nnn(C)c3c2)cc1)c1nnn[nH]1 [Example 248] , report its measured IC50.
700

The record that follows has no IC50 shown yet.
Given the entry CC(C)C[C@H](C(=O)O)[C@H](Cc1ccc(Oc2ccc(C(C)N)nc2)nc1)c1nn[nH]n1 (stereo partly drawn) [Example 380] , report its measured IC50.
12

Cited source for all entries: patent US9839642B2
